Each entry below carries its reported pKd.
target: T1, human CD40-Fc protein (human, UniProt P25942 21-193); test: BLI (ForteBio), IgG on AHQ sensor, 100 nM CD40-Fc in solution, bivalent, 1:1 model
T1 construct: also called human CD40-Fc fusion protein; CD40-Fc antigen; not shown: Fc part
T1 sequence (P25942 21-193 limits assumed): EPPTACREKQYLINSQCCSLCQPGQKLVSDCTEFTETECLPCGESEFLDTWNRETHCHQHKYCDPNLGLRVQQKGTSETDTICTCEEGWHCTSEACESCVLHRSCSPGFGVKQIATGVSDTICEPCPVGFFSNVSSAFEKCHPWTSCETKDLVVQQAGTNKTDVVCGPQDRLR
# pKd: negative log10 of molar concentration; output just the value

Example cases with answers are listed next.
ADI-55168 (antibody, human IgG1, kappa, V domains shown) VH: EVQLVESGGGLVQPGRSLRLSCAASGFTFDTYAMHWVRQAPGKGLEWVSGISWSSGSIHYADSVKGRFTISRDNAKNSLYLQMNSLRAEDTAVYYCAKDPTATTGARGYFDLWGRGTLVTVSS VL: DIQMTQSPSSVSASVGDRVTITCEASQVISSWLAWYQQKPGKAPKLLIYAASYLQSGVPSRFSGSGSGTDFTLTISSLQPEDFATYYCQQHSSFPPTFGGGTKVEIKR    9.95
ADI-47720 (antibody, human IgG1, kappa, V domains shown) VH: EVQLVESGGGLVQPGRSLRLSCAASGFTFDDYAMHWVRQAPGKGLEWVSGISWSSGSIGYADSVKGRFTISRDNAKNSLYLQMNSLRAEDTAVYYCAKDPTATTGARGYFDLWGRGTLVTVSS VL: DIQMTQSPSSVSASVGDRVTITCRASQGISSWLAWYQQKPGKAPKLLIYAASSLQSGVPSRFSGSGSGTDFTLTISSLQPEDFATYYCQQRASFPPTFGGGTKVEIKR    8.03

Next, consider the following binder.
Data request: Would you kindly share the measured pKd for ADI-55144 (antibody, human IgG1, kappa, V domains shown) VH: QVQLVESGGGVVQPGRSLRLSCAASGFTFEKYGMHWVRQAPGKGLEWVAVISYEGTKKYYADSVKGRFTISRDNSKNTLYLQMNSLRAEDTAVYYCARDTSRGHDIWGQGTMVTVSS VL: EIVLTQSPGTLSLSPGERATLSCRASQSVSYSYLAWYQQKPGQAPRLLIYGASSLATGIPDRFSGSGSGTDFTLTISRLEPEDFAVYYCQQYSDYPPFTFGGGTKVEIKR ?
Data returned: 9.96
